The measurements presented in this section are drawn from ChEMBL document CHEMBL1687750.

Test: AUC ratio in brain to plasma in non-perfused Sprague-Dawley rat at 30 mg/kg, iv
Type: ADME, organism-based
Parameters: dose 30 mg/kg, route intravenous
Settings: brain and plasma, read-out: Ratio AUC
measurement label: Kp
Write the value as a bare number.

Exercise: GET /values?readout=Kp&item= CCC(CC)O[C@@H]1C=C(C(=O)O)C[C@H](N)[C@H]1NC(C)=O [OSELTAMIVIR CARBOXYLATE]
Key: 0.01

====

Attribute: Kp
Test: AUC (0 to 8 hrs) ratio in cerebrospinal fluid to plasma in perfused Sprague-Dawley rat at 1000 mg/kg, po
Format: ADME, organism-based
Set-up: dose 1000 mg/kg, route oral
Settings: cerebrospinal fluid and plasma, read-out: Ratio AUC
Write the value as a bare number.

CCC(CC)O[C@@H]1C=C(C(=O)O)C[C@H](N)[C@H]1NC(C)=O [OSELTAMIVIR CARBOXYLATE] : 0.007

Next item in the queue.
Exercise: GET /values?readout=Kp&item= CCOC(=O)C1=C[C@@H](OC(CC)CC)[C@H](NC(C)=O)[C@@H](N)C1
Key: 0.07
